System: CDK11
Construct: gene CDK19
Conditions: concentration: 1 μM,replicates: in singlicate; n = 1;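 further: KINOMEscan kinase panel screen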
test.readout: %Inh (%)

* Cc1ccc(CC(=O)N2CCc3cc(-c4cn(C)c5ncnc(N)c45)ccc32)cc1 | 72
* COc1ccc(Nc2nccc(N3CCC(NC(=O)c4cccc(C#N)c4)C3)n2)cc1 (stereo not drawn) | 4
* NC(=O)c1ccc(-c2cc3ncnc(SCC(=O)O)c3s2)cc1 | 0
* O=c1[nH]cc(-c2ccc(O)cc2)c2sc(-c3ccncc3)cc12 | 0
* CCCC(=O)Nc1n[nH]c2ncccc12 | 0
* CSc1nccc(-c2c(-c3ccc(F)cc3)ncn2CCCN2CCOCC2)n1.Cl | 0
* FC(F)(F)c1cc(Br)cc(Nc2nccc(-c3cnn4ncccc34)n2)c1 | 0
* COC(=O)Nc1nc2cc(Oc3ccc(NC(=O)Nc4cc(C(F)(F)F)ccc4Cl)cc3)ccc2[nH]1.Cl | 66
* C[C@@H](Oc1cc(-n2cnc3cc(-c4ccncc4)ccc32)sc1C(N)=O)c1ccccc1Cl | 0

---

System: EPHB4
Details: concentration: 1 μM,replicates: in singlicate; n = 1
# label = MET if %Inh >= 20% else NOT MET

* O=C(Nc1n[nH]c2cc(-c3ccco3)ccc12)C1CC1 | NOT MET
* Cn1ccc2ncnc(Oc3ccc(NC(=O)Nc4cncc(C(F)(F)F)c4)c(Cl)c3)c21 | MET
* CCOC(=O)N1CCC(n2cnc(-c3ccc(F)cc3)c2-c2ccnc(N)n2)CC1 | NOT MET
* CNC(=O)c1ccccc1Nc1nc(Nc2cccc(CS(C)(=O)=O)c2)ncc1C.O=CO | MET
* CS(=O)(=O)Nc1ccc(-c2ccnc3[nH]ccc23)cc1 | NOT MET
* Cc1ccc(CC(=O)N2CCc3cc(-c4cn(C)c5ncnc(N)c45)ccc32)cc1 | NOT MET
* CN1CCN(CCNc2nc3cc(Oc4ccc(NC(=O)Nc5cc(C(F)(F)F)ccc5F)cc4)ccc3[nH]2)CC1.Cl.Cl | NOT MET

---

%Inh values, listed per item
Tested on: MLK3
Details: concentration: 1 μM,replicates: in singlicate; n = 1
test.readout: %Inh (%)

- O=C(Nc1ccc(Oc2ccc3nc(NC(=O)C4CC4)cn3n2)c(F)c1)c1cccn(-c2ccccc2)c1=O: 10
- Cl.Cl.NC[C@H](CC1CCCCC1)NC(=O)c1ccc(-c2ccnc3[nH]ccc23)s1: 0
- COc1ccc(Nc2nccc(N3CCC(NC(=O)c4cccc(C#N)c4)C3)n2)cc1 (centres unmarked): 22
- CS(=O)(=O)c1cccc(CNc2nc(Nc3ccc4c(c3)[C@@H]3C[C@@H]4CNC3=O)ncc2C(F)(F)F)c1: 98.1
- Nc1nccc(-c2ccc3c(N)n[nH]c3c2)n1: 0
- O=C(NOCC1CC1)c1cc(Br)c(F)c(F)c1Nc1ccc(I)cc1Cl: 0
- CC(=O)Nc1nc2cnc(Nc3cc(NC(=O)c4cccc(CC(C)(C)C#N)c4)ccc3C)nc2s1: 5
- CSc1nccc(-c2c(-c3ccc(F)cc3)ncn2CCCN2CCOCC2)n1.Cl: 0

---

System: PHKG2
Settings: concentration: 1 μM,replicates: in singlicate; n = 1
test.readout: %Inh (%)

• CCN1CCN(CCCC(=O)Nc2n[nH]c3nc(-c4ccc(O)cc4)c(Br)cc23)CC1 [SB-731579] = 2
• CCn1c(-c2nonc2N)nc2cncc(CNC3CCNCC3)c21.Cl [SB-747651] = 0
• Cc1nnc(-c2ccc3occ(-c4ccc(S(C)=O)cc4)c3n2)o1 (centres unmarked) = 16
• CS(=O)(=O)c1cccc(CNc2nc(Nc3ccc4c(c3)[C@@H]3C[C@@H]4CNC3=O)ncc2C(F)(F)F)c1 = 0
• COC(=O)c1cccc(NC(=O)NC2CCN(c3ccnc(NCc4ccc(F)cc4)n3)CC2)c1 [GSK1379860] = 0
• O=C1NCCc2[nH]c(-c3ccncc3)cc21 = 14
• FC(F)(F)c1cc(Br)cc(Nc2nccc(-c3cnn4ncccc34)n2)c1 [GW810578] = 0
• O=C(Nc1cccc(C(F)(F)F)c1)c1cccc(Oc2ccc3nccn3n2)c1 = 0
• OCCn1cc(-c2cnc3nnn(Cc4ccc5ncccc5c4)c3n2)cn1 = 0
• CCn1c(-c2nonc2N)nc2cncc(Br)c21 [SB-738004] = 0
• CN1CCN(CCCNc2nccc(-c3c(-c4ccc(F)cc4)nn4cc(C(N)=O)ccc34)n2)CC1 [GW622475] = 26
• C[C@@H](Oc1cc(-n2cnc3ccc(-c4ccncc4)cc32)sc1C(N)=O)c1ccccc1Cl [GSK483724] = 0
• Cl.Cl.NC[C@H](CC1CCCCC1)NC(=O)c1ccc(-c2ccnc3[nH]ccc23)s1 [GSK1581428] = 13
• CNC(=O)c1ccccc1Nc1nc(Nc2cccc(CS(C)(=O)=O)c2)ncc1C.O=CO [GSK1520489] = 49
• Cc1cccc(-c2nc(Nc3ccncc3)c3sccc3n2)n1 [GW869641] = 5
• CC(=O)Nc1ccc(-c2cc3ncnc(SCC(=O)O)c3s2)cc1 = 3
• COc1cc2nccc(Nc3ccc(Oc4ccccc4)cc3)c2cc1OC.Cl [GI261656] = 6
• COC(=O)c1cccc(NC(=O)NC2CCN(c3ccnc(Nc4cc(OC)c(OC)c(OC)c4)n3)C2)c1 (centres unmarked) [GSK1379767] = 2
• Cl.Nc1n[nH]c2cc(-c3ccccn3)ccc12 [GSK2189892] = 0
• COc1cccc(CNC(=O)NC2CCN(c3ccnc(Nc4cc(OC)c(OC)c(OC)c4)n3)C2)c1 (centres unmarked) [GSK1379765] = 0
• Cn1ccc2ncnc(Oc3ccc(NC(=O)Nc4cccc(C(F)(F)F)c4)c(F)c3)c21 = 0
• Cc1ccc(Nc2ccnc(Nc3ccc4c(c3)CS(=O)(=O)C4)n2)cc1O.Cl [GW579362] = 1
• COc1cc2c(Nc3ccc(NC(=O)c4ccccc4)cc3)ncnc2cc1OCCCN1CCOCC1 [GSK301329] = 0
• CS(=O)c1ccc(-c2coc3ccc(-c4n[nH]c(=O)o4)cc23)cc1 (centres unmarked) = 6
• Cc1cccc2c(-c3ccncc3)c(-c3ccc(F)cc3)nn12.Cl [GW461487] = 0
• CS(=O)(=O)Nc1ccc(-c2ccnc3[nH]ccc23)cc1 [GSK993273] = 13
